Molecular target: recombinant full length LRRK2 protein (LRRK2 Ser935 phosphorylation) (Homo sapiens, UniProt Q5S007)
Construct: A BacMam virus expressing full length recombinant LRRK2 was purchased from Invitrogen; host or cells: SH-SY5Y human neuroblastoma cells transduced with BacMam LRRK2 virus
Sequence (Q5S007 whole entry): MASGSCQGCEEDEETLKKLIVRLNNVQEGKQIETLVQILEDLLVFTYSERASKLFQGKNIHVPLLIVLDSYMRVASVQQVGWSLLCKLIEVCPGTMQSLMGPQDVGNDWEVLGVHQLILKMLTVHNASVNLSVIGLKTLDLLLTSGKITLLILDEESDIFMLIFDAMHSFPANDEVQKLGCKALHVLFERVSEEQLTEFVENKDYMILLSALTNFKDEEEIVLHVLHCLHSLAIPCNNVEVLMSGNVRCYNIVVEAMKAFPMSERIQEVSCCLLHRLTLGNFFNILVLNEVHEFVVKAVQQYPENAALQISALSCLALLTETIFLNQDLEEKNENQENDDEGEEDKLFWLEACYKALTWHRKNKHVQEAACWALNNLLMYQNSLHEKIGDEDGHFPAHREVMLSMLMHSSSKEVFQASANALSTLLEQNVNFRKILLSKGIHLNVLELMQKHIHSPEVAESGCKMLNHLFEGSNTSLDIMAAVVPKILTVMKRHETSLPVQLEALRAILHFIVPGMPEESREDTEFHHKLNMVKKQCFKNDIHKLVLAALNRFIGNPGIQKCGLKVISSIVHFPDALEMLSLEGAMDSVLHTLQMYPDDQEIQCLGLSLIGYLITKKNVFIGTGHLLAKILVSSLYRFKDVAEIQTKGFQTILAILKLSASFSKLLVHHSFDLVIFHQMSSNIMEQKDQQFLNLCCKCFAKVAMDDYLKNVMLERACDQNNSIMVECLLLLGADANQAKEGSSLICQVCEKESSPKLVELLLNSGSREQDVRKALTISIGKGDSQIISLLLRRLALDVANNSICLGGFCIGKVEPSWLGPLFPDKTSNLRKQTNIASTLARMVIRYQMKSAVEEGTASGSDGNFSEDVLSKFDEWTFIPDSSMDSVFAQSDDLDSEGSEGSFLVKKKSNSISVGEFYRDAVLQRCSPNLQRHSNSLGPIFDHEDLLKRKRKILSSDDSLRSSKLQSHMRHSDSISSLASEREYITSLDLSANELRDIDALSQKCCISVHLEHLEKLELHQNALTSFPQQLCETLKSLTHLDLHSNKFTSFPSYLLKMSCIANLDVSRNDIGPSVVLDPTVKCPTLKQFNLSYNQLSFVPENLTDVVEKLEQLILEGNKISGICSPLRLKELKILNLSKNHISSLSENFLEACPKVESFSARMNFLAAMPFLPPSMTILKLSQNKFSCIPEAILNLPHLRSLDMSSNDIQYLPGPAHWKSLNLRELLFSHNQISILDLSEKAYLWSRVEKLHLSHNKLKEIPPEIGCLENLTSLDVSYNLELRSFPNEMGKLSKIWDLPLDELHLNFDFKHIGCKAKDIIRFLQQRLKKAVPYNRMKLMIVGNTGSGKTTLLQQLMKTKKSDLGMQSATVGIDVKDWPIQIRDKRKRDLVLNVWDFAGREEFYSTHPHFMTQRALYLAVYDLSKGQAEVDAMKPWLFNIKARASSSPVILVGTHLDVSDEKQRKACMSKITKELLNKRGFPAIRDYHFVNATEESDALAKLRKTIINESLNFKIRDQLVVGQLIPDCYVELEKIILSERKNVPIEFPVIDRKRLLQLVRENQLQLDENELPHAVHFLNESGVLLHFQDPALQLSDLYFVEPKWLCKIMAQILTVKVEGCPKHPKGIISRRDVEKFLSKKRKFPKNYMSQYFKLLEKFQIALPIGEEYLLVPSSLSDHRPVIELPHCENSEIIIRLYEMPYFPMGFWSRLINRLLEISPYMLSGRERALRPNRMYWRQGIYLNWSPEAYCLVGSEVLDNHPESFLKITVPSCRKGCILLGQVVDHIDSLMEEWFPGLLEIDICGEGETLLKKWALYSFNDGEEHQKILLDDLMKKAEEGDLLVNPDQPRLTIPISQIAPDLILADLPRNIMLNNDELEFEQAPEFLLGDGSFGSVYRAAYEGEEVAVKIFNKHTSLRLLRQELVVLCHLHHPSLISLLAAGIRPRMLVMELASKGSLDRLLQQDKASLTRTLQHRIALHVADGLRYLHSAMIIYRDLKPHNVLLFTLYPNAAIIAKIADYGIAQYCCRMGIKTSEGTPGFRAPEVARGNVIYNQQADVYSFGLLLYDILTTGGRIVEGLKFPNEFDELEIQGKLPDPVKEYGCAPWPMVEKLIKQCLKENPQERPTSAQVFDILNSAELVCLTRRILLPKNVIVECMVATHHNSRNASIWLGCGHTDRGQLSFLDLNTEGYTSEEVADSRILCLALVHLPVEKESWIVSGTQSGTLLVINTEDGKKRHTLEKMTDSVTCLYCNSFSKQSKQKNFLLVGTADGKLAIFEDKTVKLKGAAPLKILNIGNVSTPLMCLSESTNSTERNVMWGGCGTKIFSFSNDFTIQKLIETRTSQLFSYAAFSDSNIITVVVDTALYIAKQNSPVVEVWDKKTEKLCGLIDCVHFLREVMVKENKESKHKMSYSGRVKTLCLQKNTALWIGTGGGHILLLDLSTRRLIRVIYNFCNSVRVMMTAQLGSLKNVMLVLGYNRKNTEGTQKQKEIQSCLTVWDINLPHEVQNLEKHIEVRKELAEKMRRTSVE
Assay: Recombinant cellular LRRK2 AlphaScreen assay
Type: cell-based
Settings: SH-SY5Y cells over-expressing recombinant full length LRRK2, 60 minutes, read-out: pIC50 in the recombinant cellular LRRK2 AlphaScreen assay (converted)
endpoint-name: IC50 (nM)
Reply with just the number (in nM).

Sample records with IC50:
Cc1nc(N2CC(C)OC(CO)C2)cc(-n2ncc3cc(C)c(C4CCN(C5COC5)CC4)cc32)n1 (single isomer, unassigned) [Example B-4]    316
Cc1nc(N2CCOC(CCO)C2)cc(-n2ncc3cc(C)c(C4CCN(C5COC5)CC4)cc32)n1 (single isomer, unassigned) [Example B-8]    100

Qu. Can you share its IC50? I mean this compound: Cc1nc(N2CC(C)OC(CO)C2)cc(-n2ncc3cc(C)c(C4CCN(C5COC5)CC4)cc32)n1 (single isomer, unassigned) [Example B-3]
Ans. 50.1
